# Tested on: SNB-19 CNS
# Assay details: NCI tumour cell line growth inhibition, 48 h
Items are presented alongside their recorded TGI.

Worked examples, 4 molecules total:
Molecule: O=[N+]([O-])c1cc([N+](=O)[O-])c(C(Cl)C(Cl)c2ccccc2)cc1C(Cl)C(Cl)c1ccccc1 (stereo unspecified)
TGI: 6.53 µM
//
Molecule: C=C(CN(C)C)C(=O)c1ccc(OC)cc1
TGI: 40.3 µM
//
Molecule: O=C(O)C1CCCCC1C(=O)Nc1nc2ccccc2[nH]1 (stereo unspecified)
TGI: > 100 µM
//
Molecule: CC(=O)O[C@]12CCCCC1C1(O)C(O)CCCC[C@H]12 (stereo partly specified)
TGI: > 100 µM

Lookup: Annotate the molecule CCOC1=C2C(C)(CCC3[C@@]4(C)C=CC(=O)C(C)(C)C4CC(O)[C@@]23C)C(c2ccoc2)C1=O (stereo partly specified) with its measured TGI.
Found: > 100 µM

Lookup: Annotate the molecule `C[N+]1(CCCC[N+]2(C)CCCCCCC2)CCCCCCC1` with its measured TGI.
Found: > 100 µM

* * *

# Tested on: NCI/ADR-RES ovarian
# Assay details: NCI tumour cell line growth inhibition, 48 h
Value type: TGI

Worked examples, 2 compounds total:
Query smiles: Nc1ccc(-c2nc3ccc(Cc4ccc5nc(-c6ccc(N)cc6)oc5c4)cc3o2)cc1
TGI: > 100 µM
//
Query smiles: CN(C)C=Nc1c(Br)cc(Br)c2nonc12
TGI: > 100 µM

Turning now to a further compound:
Lookup: Annotate the compound `O=C1Cc2c(-c3ccccc3)cc(-c3ccc4ccccc4c3)nc2-c2ccccc2N1` with its measured TGI.
Found: > 100 µM

* * *

# System: BT-549 breast
# Assay details: NCI tumour cell line growth inhibition, 48 h
Value type: TGI

Worked examples, 2 molecules total:
Molecule: COc1cc2c(cc1O)-c1c(OC)c(O)cc3c1C(C2)N(C)CC3 (stereo not drawn)
Result: > 100 µM
--
Molecule: C=CCOCn1ccc(NC(=O)c2ccccc2)nc1=O
Result: > 100 µM

Lookup: Annotate the molecule `O=c1c2ccccc2n2n1Cc1ccccc1C2` with its measured TGI.
Found: > 100 µM

Lookup: Annotate the molecule `CC#CC(=O)N[C@H]1CCCN(c2c(F)cc(C(N)=O)c3[nH]c(C)c(C)c23)C1` with its measured TGI.
Found: 30.3 µM

* * *

# Test system: DMS 114 small cell lung
# Assay details: NCI tumour cell line growth inhibition, 48 h
Items are presented alongside their recorded TGI.

Worked examples, 3 compounds total:
Compound: O=C(NCCCCCCNC(=O)NC1OCC(O)C(O)C1O)NC1OCC(O)C(O)C1O (stereo unspecified)
TGI: > 100 µM

Compound: O=C1C2C3CCC(C2C(=O)N1CO)C1C2C(=O)N(CO)C(=O)C2C31 (stereo unspecified)
TGI: > 59.5 µM

Compound: CNC(=O)OCc1cc2ccncc2c2c1[nH]c1ccccc12
TGI: > 100 µM

Lookup: Annotate the compound CCN1C(=O)C(N=[N+]=[N-])(c2ccccc2)C(=O)c2ccccc21 (stereo unspecified) with its measured TGI.
Found: > 100 µM

Lookup: Annotate the compound COc1cc2c3c(c1OCc1ccccc1)NCCC3NCC2 (stereo unspecified) with its measured TGI.
Found: > 100 µM

Lookup: Annotate the compound `O=c1nc(-c2ccccc2)scc1-c1ccccc1` with its measured TGI.
Found: > 100 µM
